Sourced from PubChem BioAssay

- Assay Name: ATP-based viability of Huh7 replicon cells – cell-based, CellTiter-Glo luminescence, basal, 48 h, cytotoxicity control for HCV replication inhibitor project, primary screen (AID 1143);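 note: Huh7 hepatoma cells carrying a hepatitis C replication reporter with no stimulus; test concentration not given here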
- Test Settings: higher = more signal, called active from +8 up or from −8 down
Measured Quantity: z-score
The reply should be a number, written without any unit.

**Q:** Consider the molecule Cc1ccc(NN2C(C(O)c3c(F)cccc3Cl)C=CC3C(=O)N(C4CCCCC4)C(=O)C32)cc1 (configuration not stated) . State its measured z-score.
**A:** -3.26

**Q:** Consider the molecule [N-]=[N+]=Nc1ccccc1[C@@H]1OC(c2ccc(OCCCO)cc2)=N[C@]1(Cc1ccccc1)C(=O)O . State its measured z-score.
**A:** -0.626

**Q:** Consider the molecule CCCCCCCCCCC(O)C1C=CC2C(=O)N(c3ccccc3)C(=O)C2N1Nc1ccc(C#N)cc1 (configuration not stated) . State its measured z-score.
**A:** -3.71

**Q:** Consider the molecule C=CCC(OC(C)=O)[C@@H]1[C@@H](N(Cc2cc3ccccc3o2)C(=O)Cc2ccc(F)cc2)c2cc(OCCCO)ccc2N1C(=O)Cc1ccc2ccccc2c1 (some centres not stated) . State its measured z-score.
**A:** -0.327

**Q:** Consider the molecule C=CCNC(=O)[C@H]1[C@@H]2C(=O)O[C@@H](c3ccccc3)[C@@H](c3ccccc3)N2[C@@H](c2ccccc2OCCO)[C@]12C(=O)N(C(=O)OCCOC)c1ccc(C#CC3(O)CCCCCC3)cc12 . State its measured z-score.
**A:** -5.57

**Q:** Consider the molecule Cc1ccc(C(C)CC(O)C2C=CC3C(=O)N(c4ccccc4)C(=O)C3N2Nc2ccccc2)o1 (configuration not stated) . State its measured z-score.
**A:** -2.95

**Q:** Consider the molecule CN(C)C(=O)[C@]1(CCC(=O)OC(C)(C)C)N=C(c2ccc(OCCCO)cc2)O[C@@H]1c1ccccc1CN=[N+]=[N-] . State its measured z-score.
**A:** -1.5

---

Kindly supply the reported composite z-score values for the records listed here.
- Assay Name: small molecules captured by biotinylated probe aFST – biochemical, small-molecule microarray, fluorescence 635/667, stem cell growth factor project, primary screen (AID 1086);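 note: score merges 667 nm fluorescence with signal-to-noise of each printed compound spot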
- Test Settings: higher = more signal
The reply should be a number, written without any unit.

**Q:** Consider the molecule O=C(Cc1ccccc1)[C@H]1C2C=CCCC(c3ccccc3)=C2CN1Cc1ccccc1 (stereo partly drawn) . State its measured composite z-score.
**A:** -0.205

**Q:** Consider the molecule CC(C)(C)OC(=O)COc1cccc(C(=O)CCN2CCOCC2)c1 . State its measured composite z-score.
**A:** 0.482

**Q:** Consider the molecule CN1C(=O)C2C=CC(C(O)c3cccn3C)N(Nc3ccc([N+](=O)[O-])cc3[N+](=O)[O-])C2C1=O (stereo not drawn) . State its measured composite z-score.
**A:** 0.477

**Q:** Consider the molecule CN1C2C=C(CCCO)C(C3C(=O)N(C(N)=O)C(=O)C32)C1C1CC1 (stereo not drawn) . State its measured composite z-score.
**A:** -0.57

**Q:** Consider the molecule COc1cc2c(cc1O)C(C1CC1)N(C)CC2 (stereo not drawn) . State its measured composite z-score.
**A:** -0.406

**Q:** Consider the molecule CCCCCC1=C2CNC(C)(C(=O)OC)C=C2C(C)C1=O (stereo not drawn) . State its measured composite z-score.
**A:** 0.0861

**Q:** Consider the molecule OCCCC1=CC(c2ccc(CN3CCCC3)cc2)N(Cc2cc3c(cc2Br)OCO3)CC1 (stereo not drawn) . State its measured composite z-score.
**A:** 0.47

**Q:** Consider the molecule CCOC(=O)C[C@H]1[C@H](OC(=O)c2ccc(C(=O)c3ccccc3)cc2)[C@@H](NC(=O)CC(C)C)c2cc(OCCCO)ccc2N1C(=O)c1ccccc1 . State its measured composite z-score.
**A:** 0.766

**Q:** Consider the molecule O=C(O)[C@@H]1[C@@H]2C(=O)N(c3ccccc3)C(=O)[C@@H]2C[C@@H]1Sc1ccccc1 . State its measured composite z-score.
**A:** -0.377

**Q:** Consider the molecule COCCCNC(=O)[C@@]1(CCC(=O)OC(C)(C)C)N=C(c2ccc(OCCCO)cc2)O[C@H]1c1ccccc1N=[N+]=[N-] . State its measured composite z-score.
**A:** 1.03

**Q:** Consider the molecule CCCCC(CC)C(O)C1C=CC2C(=O)N(C)C(=O)C2N1Nc1ccccc1 (stereo not drawn) . State its measured composite z-score.
**A:** 0.388

**Q:** Consider the molecule COc1ccc(CCNC(=O)[C@@]2(c3ccc([N+](=O)[O-])cc3)CC(=O)N(C3CCCCC3)[C@@H]2c2ccc(CO)cc2)cc1 . State its measured composite z-score.
**A:** 0.602

**Q:** Consider the molecule C#Cc1cc2ccccc2oc1=O . State its measured composite z-score.
**A:** -0.839

**Q:** Consider the molecule Cc1ccc(S[C@]2(C(=O)NCC(F)(F)F)CC(=O)N(Cc3cc(C(F)(F)F)cc(C(F)(F)F)c3)[C@@H]2c2ccc(CO)cc2)cc1 . State its measured composite z-score.
**A:** -0.234

**Q:** Consider the molecule C=CCNC(=O)[C@@H]1[C@H]2C(=O)O[C@H](c3ccccc3)[C@H](c3ccccc3)N2[C@H](c2ccccc2OCCO)[C@@]12C(=O)Nc1ccc(C#CCC(C(=O)OC)C(=O)OC)cc12 . State its measured composite z-score.
**A:** -0.437

**Q:** Consider the molecule COc1ccc(CCNC(=O)[C@@]2(Sc3ccc(C)cc3)CC(=O)N(Cc3ccccc3C(F)(F)F)[C@@H]2c2ccc(CO)cc2I)cc1 . State its measured composite z-score.
**A:** -0.261

**Q:** Consider the molecule CCCCC=C[C@@H](NC(=O)OCc1ccccc1Cl)c1ccccc1 . State its measured composite z-score.
**A:** 2.81

**Q:** Consider the molecule C=C[C@H](C)[C@H](OC(=O)Nc1ccc(SC)cc1)c1ccc(OCCO)cc1 . State its measured composite z-score.
**A:** 0.0319
